Quick reference: pIC50 of the listed items.
Study Target: Amine oxidase [flavin-containing] A (Homo sapiens, UniProt P21397)
Sequence (P21397 whole entry): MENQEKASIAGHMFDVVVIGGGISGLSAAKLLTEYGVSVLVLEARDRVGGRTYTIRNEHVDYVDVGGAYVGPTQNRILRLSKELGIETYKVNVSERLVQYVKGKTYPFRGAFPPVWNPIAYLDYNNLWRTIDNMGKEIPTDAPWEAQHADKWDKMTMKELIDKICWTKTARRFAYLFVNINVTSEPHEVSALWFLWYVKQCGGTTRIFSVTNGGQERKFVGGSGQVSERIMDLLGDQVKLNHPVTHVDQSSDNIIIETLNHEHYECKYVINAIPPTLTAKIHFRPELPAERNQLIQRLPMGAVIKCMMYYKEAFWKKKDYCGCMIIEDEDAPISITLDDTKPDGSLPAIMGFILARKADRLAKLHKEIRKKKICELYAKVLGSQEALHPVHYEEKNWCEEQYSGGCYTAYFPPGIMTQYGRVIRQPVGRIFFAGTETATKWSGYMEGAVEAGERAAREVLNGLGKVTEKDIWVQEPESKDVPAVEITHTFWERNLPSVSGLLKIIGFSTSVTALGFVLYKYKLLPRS
Keep in mind that pIC50 stands for -log10 of concentration in molar terms.

CC(C)=CCc1c(O)cc(/C=C/c2ccc3c(c2)[C@H](c2cc(O)c4c(c2)OC(C)(C)CC4)[C@@H](c2ccc(O)cc2)O3)cc1O: 5.09

Here's the next entry for you.
Please supply the value of reported pIC50 for the item CC(C)=CCc1c(O)cc(/C=C/c2ccc3c(c2)[C@H](c2cc(O)c(CC=C(C)C)c(O)c2)[C@@H](c2ccc(O)cc2)O3)cc1O
5.59

====

Test Description: Antioxidant activity assessed as inhibition of DPPH free radical after 30 mins by UV-Visible spectrophotometric analysis
Assay type: functional
pIC50: −log10 of the molar value.
If the reported pIC50 equals or exceeds 4, assign condition met. If not, assign condition not met.

Decide: is the reported value of pIC50 for Cc1c(C)c2c(c(C)c1O)CCC(C)(C(=O)O)O2 (stereo not drawn) [TROLOX] equal to or greater than 4?
condition met

Decide: is the reported value of pIC50 for CC(C)=CCc1c(O)cc(/C=C/c2ccc3c(c2)[C@H](c2cc(O)c(CC=C(C)C)c(O)c2)[C@@H](c2ccc(O)cc2)O3)cc1O equal to or greater than 4?
condition met

Decide: is the reported value of pIC50 for CO[C@@H](c1ccc(O)cc1)[C@H](Oc1ccc(/C=C/c2cc(O)c3c(c2)OC(C)(C)CC3)cc1)c1cc(O)c(CC=C(C)C)c(O)c1 equal to or greater than 4?
condition not met

Decide: is the reported value of pIC50 for CC(C)=CCc1c(O)cc([C@@H](Oc2ccc(/C=C/c3cc(O)c4c(c3)OC(C)(C)CC4)cc2)[C@@H](C)c2ccc(O)cc2)cc1O equal to or greater than 4?
condition not met

Decide: is the reported value of pIC50 for CC(C)=CCc1c(O)cc(/C=C/c2ccc3c(c2)[C@H](c2cc(O)c4c(c2)OC(C)(C)CC4)[C@@H](c2ccc(O)cc2)O3)cc1O equal to or greater than 4?
condition met

Decide: is the reported value of pIC50 for CC(C)=CCc1c(O)cc(/C=C/c2ccc(O)cc2)cc1O [ARACHIDIN-2] equal to or greater than 4?
condition met

====

Species on record: Homo sapiens
Test Description: Selectivity ratio of IC50 for human MAO-A to IC50 for human MAO-B
Param label: returns Fulfilled when Ratio IC50 < 3, returns Not fulfilled otherwise, including exact equality.

Check if Ratio IC50 falls below 3 for CC(C)=CCc1c(O)cc(/C=C/c2ccc3c(c2)[C@H](c2cc(O)c(CC=C(C)C)c(O)c2)[C@@H](c2ccc(O)cc2)O3)cc1O .
Fulfilled

Check if Ratio IC50 falls below 3 for CO[C@@H](c1ccc(O)cc1)[C@H](Oc1ccc(/C=C/c2cc(O)c3c(c2)OC(C)(C)CC3)cc1)c1cc(O)c(CC=C(C)C)c(O)c1 .
Not fulfilled

Check if Ratio IC50 falls below 3 for CC(C)=CCc1c(O)cc([C@@H](Oc2ccc(/C=C/c3cc(O)c4c(c3)OC(C)(C)CC4)cc2)[C@@H](C)c2ccc(O)cc2)cc1O .
Fulfilled

Check if Ratio IC50 falls below 3 for Oc1ccc([C@H]2Oc3ccc(/C=C/c4cc(O)cc(O)c4)cc3[C@@H]2c2cc(O)cc(O)c2)cc1 .
Not fulfilled

Check if Ratio IC50 falls below 3 for CC(C)=CCc1c(O)cc(/C=C/c2ccc3c(c2)[C@H](c2cc(O)c4c(c2)OC(C)(C)CC4)[C@@H](c2ccc(O)cc2)O3)cc1O .
Fulfilled

Check if Ratio IC50 falls below 3 for CC(C)=CCc1c(O)cc(/C=C/c2ccc(O)cc2)cc1O .
Not fulfilled
